Measured values drawn from ChEMBL document CHEMBL5137057 for this set.

Target protein (sequence): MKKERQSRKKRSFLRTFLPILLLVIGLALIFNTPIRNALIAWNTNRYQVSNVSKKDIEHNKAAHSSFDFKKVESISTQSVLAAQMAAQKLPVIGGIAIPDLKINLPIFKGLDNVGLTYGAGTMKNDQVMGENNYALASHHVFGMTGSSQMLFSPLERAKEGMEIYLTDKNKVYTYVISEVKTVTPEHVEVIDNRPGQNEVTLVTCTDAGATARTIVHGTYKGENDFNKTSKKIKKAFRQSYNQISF
resultType: pIC50
pIC50 is defined as minus the log10 of a concentration measured in mol/L.

Lookup: If you can, please state the reported pIC50 value of C[C@H]1O[C@@H](O[C@H]2C(=O)c3c(O)cc(O)cc3O[C@@H]2c2ccc(O)c(O)c2)[C@H](O)[C@H](O)[C@H]1O .
Found: 4.78

###

systemTested: Fucose-binding lectin PA-IIL (Pseudomonas aeruginosa (strain ATCC 15692 / DSM 22644 / CIP 104116 / JCM14847 / LMG 12228 / 1C / PRS 101 / PAO1))
Sequence (Q9HYN5 1-115): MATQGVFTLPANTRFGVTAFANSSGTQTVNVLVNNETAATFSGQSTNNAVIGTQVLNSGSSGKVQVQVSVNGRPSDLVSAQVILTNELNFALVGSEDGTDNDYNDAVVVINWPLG
protocolDetails: Binding affinity to Pseudomonas aeruginosa PA14 LecB assessed as dissociation constant by isothermal titration calorimetry
resultType: pKd
Remember, pKd is on a log scale: it is -log10 of the molar concentration.

recordsmiles=Cc1cc(C)c(S(=O)(=O)NC[C@H]2O[C@@H](C)[C@@H](O)[C@@H](O)[C@@H]2O)c(C)c1 resulttype=pKd experimentalresult=6.51

Lookup: Given the entry C[C@@H]1O[C@H](CNC(=O)/C=C/c2ccccc2)[C@@H](O)[C@H](O)[C@@H]1O , report its measured pKd.
Found: 5.59

###

protocolDetails: Binding affinity to Lactobacillus reuteri Glucosyltransferase assessed as dissociation constant by SPR analysis
Design: species or system Limosilactobacillus reuteri
resultType: Kd (µM)
Write the value in µM as a bare number.

recordsmiles=C[C@H]1[C@H](Oc2ccc(/C=N/NC(=O)COc3ccccc3Cl)cc2)O[C@H](CO)[C@@H](O)[C@@H]1O resulttype=Kd experimentalresult=400

# context switch: different molecule, same Kd
Lookup: # query: Kd of entry C[C@H]1[C@H](Oc2ccc(/C=N/NC(=O)C3CCN(C(=O)OC(C)(C)C)CC3)cc2)O[C@H](CO)[C@@H](O)[C@@H]1O
Found: 1600

###

Target sequence: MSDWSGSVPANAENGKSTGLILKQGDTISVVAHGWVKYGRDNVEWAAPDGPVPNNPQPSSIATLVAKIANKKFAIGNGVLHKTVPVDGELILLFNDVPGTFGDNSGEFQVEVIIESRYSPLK
resultType: IC50 (µM)
Use µM as the unit, but write only the number.

Lookup: Which IC50 is listed for OC[C@H]1O[C@H](OC[C@H]2O[C@H](O[C@]3(CO)O[C@H](CO)[C@@H](O)[C@@H]3O)[C@H](O)[C@@H](O)[C@@H]2O)[C@H](O)[C@@H](O)[C@H]1O [RAFFINOSE] ?
Found: 110

###

systemTested: Type 1 fimbrin D-mannose specific adhesin (Escherichia coli K-12)
protocolDetails: Inhibition of Escherichia coli UTI89 FimH by hemagglutination assay
Assign True whenever EC>90 does not fall below 60 nM; assign False whenever it does.

recordsmiles=CNC(=O)c1cccc(-c2ccc(O[C@H]3O[C@H](CO)[C@@H](O)[C@H](O)[C@@H]3O)c(C)c2)c1 classification=True
recordsmiles=CNC(=O)c1cc(C(=O)NC)cc(-c2ccc(O[C@H]3O[C@H](CO)[C@@H](O)[C@H](O)[C@@H]3O)c(C(F)(F)F)c2)c1 classification=False
recordsmiles=O=c1[nH]ccc2ccc(-c3ccc(O[C@H]4O[C@H](CO)[C@@H](O)[C@H](O)[C@@H]4O)cc3)cc12 classification=True
recordsmiles=Cc1cc(-c2ccc3cc[nH]c(=O)c3c2)ccc1O[C@H]1O[C@H](CO)[C@@H](O)[C@H](O)[C@@H]1O classification=False
recordsmiles=CNC(=O)c1cccc(-c2ccc(O[C@H]3O[C@H](CO)[C@@H](O)[C@H](O)[C@@H]3O)c(C(F)(F)F)c2)c1 classification=False
recordsmiles=CNC(=O)c1cccc(-c2ccc(O[C@H]3O[C@H](CO)[C@@H](O)[C@H](O)[C@@H]3O)cc2)c1 classification=True
recordsmiles=CNC(=O)c1cc(C(=O)NC)cc(-c2ccc(O[C@H]3O[C@H](CO)[C@@H](O)[C@H](O)[C@@H]3O)c(C)c2)c1 classification=False
recordsmiles=Cc1cc(-c2ccc3ccn(CC(=O)Nc4cccnc4)c(=O)c3c2)ccc1O[C@H]1O[C@H](CO)[C@@H](O)[C@H](O)[C@@H]1O classification=False

Lookup: Confirm if EC>90 reported for the compound CNC(=O)c1cc(C(=O)NC)cc(-c2ccc(O[C@H]3O[C@H](CO)[C@@H](O)[C@H](O)[C@@H]3O)cc2)c1 is 60 nM or above.
Found: True

Lookup: Then Cc1cc(-c2ccc3ccn(C(=O)Nc4cccnc4)c(=O)c3c2)ccc1O[C@H]1O[C@H](CO)[C@@H](O)[C@H](O)[C@@H]1O ?
Found: True

###

systemTested: PA-I galactophilic lectin (Pseudomonas aeruginosa (strain ATCC 15692 / PAO1 / 1C / PRS 101 / LMG12228), UniProt Q05097)
Sequence (Q05097 whole entry): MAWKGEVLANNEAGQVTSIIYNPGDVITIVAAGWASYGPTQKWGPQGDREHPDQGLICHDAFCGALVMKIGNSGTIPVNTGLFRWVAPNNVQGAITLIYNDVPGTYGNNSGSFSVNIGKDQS
protocolDetails: Inhibition of Pseudomonas aeruginosa LecA incubated for 4 to 6 hrs by fluorescence polarization based competitive binding analysis
Each entry below lists one item and its recorded IC50 value.
API: value field is a number in µM; no unit string.

molecule=O=C(N/N=C/c1ccc(Oc2ccc(/C=N/NC(=O)c3ccc(O[C@@H]4O[C@H](CO)[C@H](O)[C@H](O)[C@H]4O)cc3)cc2)cc1)c1ccc(O[C@@H]2O[C@H](CO)[C@H](O)[C@H](O)[C@H]2O)cc1 resulttype=IC50 unitsofmeasure=µM experimentalresult=5
molecule=OC[C@H]1O[C@@H](Oc2ccccc2)[C@H](O)[C@@H](O)[C@H]1O resulttype=IC50 unitsofmeasure=µM experimentalresult=13.2
molecule=COc1ccc(/C=N/NC(=O)c2ccc(O[C@@H]3O[C@H](CO)[C@H](O)[C@H](O)[C@H]3O)cc2)cc1 resulttype=IC50 unitsofmeasure=µM experimentalresult=55.5

Okay, now this molecule:
Lookup: Name the reported IC50 value associated with the molecule O[C@H]1[C@@H](O)[C@@H](C2CO2)O[C@@H](Oc2ccccc2)[C@@H]1O (stereo not given in full)
Found: 64

###

systemTested: Sortase A (Staphylococcus aureus, UniProt Q9S446)
Sequence (Q9S446 whole entry): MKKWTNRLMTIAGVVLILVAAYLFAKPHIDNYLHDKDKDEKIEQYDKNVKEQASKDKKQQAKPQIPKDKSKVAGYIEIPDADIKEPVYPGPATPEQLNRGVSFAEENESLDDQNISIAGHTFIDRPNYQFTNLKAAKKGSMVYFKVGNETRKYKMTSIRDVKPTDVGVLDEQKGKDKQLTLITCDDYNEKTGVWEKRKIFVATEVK
protocolDetails: Inhibition of Staphylococcus aureus ATCC 6538p Sortase A protease expressed in Escherichia coli BL21 expression system using Dabcyl-QALPETGEE-Edans as substrate incubated for 1 hr by FRET assay
resultType: pIC50
Conceptually, pIC50 converts a concentration in mol/L into minus its log10.

Lookup: Report pIC50 for CC[C@H](CCC(C)[C@H]1CC[C@H]2[C@@H]3CCC4C[C@@H](O[C@@H]5O[C@H](CO)[C@@H](O)[C@H](O)[C@H]5O)CC[C@]4(C)[C@H]3CC[C@]12C)C(C)C (stereo partly specified) please.
Found: 4.50

###

systemTested: PA-I galactophilic lectin (Pseudomonas aeruginosa (strain ATCC 15692 / PAO1 / 1C / PRS 101 / LMG12228), UniProt Q05097)
protocolDetails: Binding affinity to Pseudomonas aeruginosa LecA assessed as dissociation constant by isothermal titration calorimetry
resultType: Kd (µM)
The reply should be a number in µM, with the unit left off.

Reference set, count: 3
recordsmiles=O=C(N/N=C/c1ccc(Oc2ccc(/C=N/NC(=O)c3ccc(O[C@@H]4O[C@H](CO)[C@H](O)[C@H](O)[C@H]4O)cc3)cc2)cc1)c1ccc(O[C@@H]2O[C@H](CO)[C@H](O)[C@H](O)[C@H]2O)cc1 resulttype=Kd unitsofmeasure=µM experimentalresult=10.8
recordsmiles=OC[C@H]1O[C@@H](OCc2cn([C@H]3[C@H](O)[C@@H](O)[C@H](n4cc(-c5ccc(-c6cn([C@@H]7O[C@H](CO)[C@@H](n8cc(CO[C@@H]9O[C@H](CO)[C@H](O)[C@H](O)[C@H]9O)nn8)[C@H](O)[C@H]7O)nn6)cc5)nn4)O[C@@H]3CO)nn2)[C@H](O)[C@@H](O)[C@H]1O resulttype=Kd unitsofmeasure=µM experimentalresult=0.012
recordsmiles=COc1ccc(/C=N/NC(=O)c2ccc(O[C@@H]3O[C@H](CO)[C@H](O)[C@H](O)[C@H]3O)cc2)cc1 resulttype=Kd unitsofmeasure=µM experimentalresult=5.6

Let us examine a further case.
Lookup: Fill in: Kd of O=C(O)/C=C(\C[C@@H]1O[C@H](CO)[C@H](O)[C@H](O)[C@H]1O)c1ccccc1 is ___
Found: 37
